Biological target: Adenosine 3 receptor (Homo sapiens, UniProt P0DMS8)
Construct: expressed in transfected cells; host or cells: Chinese hamster ovary (CHO) cells, co-transfected with a CRE-SPAP reporter
Sequence (P0DMS8 whole entry): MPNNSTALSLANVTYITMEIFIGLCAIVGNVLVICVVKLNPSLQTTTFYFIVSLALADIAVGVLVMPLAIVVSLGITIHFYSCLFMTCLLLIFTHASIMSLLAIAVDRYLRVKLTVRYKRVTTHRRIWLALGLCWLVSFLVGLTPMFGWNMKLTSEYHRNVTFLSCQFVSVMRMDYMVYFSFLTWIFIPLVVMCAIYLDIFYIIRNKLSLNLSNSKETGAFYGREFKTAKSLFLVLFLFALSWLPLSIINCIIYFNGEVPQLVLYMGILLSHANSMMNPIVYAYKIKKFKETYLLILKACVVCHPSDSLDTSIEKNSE
Assay: Agonist activity against adenosine 3 receptor subtype (CHO cells, forskolin-enhanced cAMP, SPAP reporter)
Assay type: cell-based
Conditions: EC50 ratio to NECA; transfected CHO cells, forskolin-enhanced cAMP reflected by SPAP
Form field: A3 (EC50 values as a ratio of that of NECA) (one value per entry).
experimentalReadout: A3 (EC50 values as a ratio of that of NECA)

1) CCc1cc(C2OC(n3cnc4c(NC(CO)Cc5ccccc5)nc(NCCN)nc43)C(O)C2O)on1 (centres unmarked)
>262
2) CCc1cc(C2OC(n3cnc4c(NC(CO)C(C)C)nc(NCCN5CCCCC5)nc43)C(O)C2O)on1 (centres unmarked)
>184
3) CCOC(=O)c1cc(C2OC(n3cnc4c(NC(CC)CC)nc(NCCc5cn(C)cn5)nc43)C(O)C2O)on1 (centres unmarked)
>113
4) CCc1cc(C2OC(n3cnc4c(NCC(c5ccccc5)c5ccccc5)nc(NC(CO)Cc5ccccc5)nc43)C(O)C2O)on1 (centres unmarked)
>298
5) CCc1cc([C@H]2O[C@@H](n3cnc4c(NC(CC)CC)nc(NC5CCOCC5)nc43)[C@H](O)[C@@H]2O)on1.O=CO
>363
6) CCc1cc([C@H]2O[C@@H](n3cnc4c(NCCC(C)(C)C)nc(NCCc5cn(C)cn5)nc43)[C@H](O)[C@@H]2O)on1.O=CO.O=CO
>312
7) CCC(CC)Nc1nc(NCCN2CCCCC2)nc2c1ncn2C1OC(c2cc(Br)no2)C(O)C1O.O=CO.O=CO (centres unmarked)
>238
8) CCc1cc([C@@H]2O[C@H](n3cnc4c(NC5CCSCC5)nc(NCCc5ccccn5)nc43)[C@@H](O)[C@H]2O)on1.O=CO.O=CO
>257
9) CCc1cc([C@H]2O[C@@H](n3cnc4c(NC(CC)CC)nc(NCCc5cn(C)cn5)nc43)[C@H](O)[C@@H]2O)on1.O=CO.O=CO
>237
10) CCc1cc(C2OC(n3cnc4c(NC(CO)Cc5ccccc5)nc(NCCNc5ccccn5)nc43)C(O)C2O)on1 (centres unmarked)
>303
11) CCc1cc([C@H]2O[C@@H](n3cnc4c(NC5CCOCC5)nc(NCCc5ccccn5)nc43)[C@H](O)[C@@H]2O)on1.O=CO.O=CO
>146
